# ASSAY_INFO: in vitro
# CONDITION_DETAILS: cynomolgus monkey, 20% fecal homogenate (supernatant), anaerobic, pH 6.8
Bridge positions count the residues as written; N and C are the ends. Square brackets hold non-standard residues; d marks the D form. Peptide text beside a SMILES is read from it. Trp(7-Me) = Cc1cccc2c(C[C@H](N)C(=O)O)c[nH]c12; 2Nal = N[C@@H](Cc1ccc2ccccc2c1)C(=O)O; AEF = NCCOc1ccc(C[C@H](N)C(=O)O)cc1; Pen = CC(C)(S)[C@H](N)C(=O)O; αMeK = C[C@](N)(CCCCN)C(=O)O; Aib = CC(C)(N)C(=O)O; βAla = NCCC(=O)O
MEASURED_PARAMETER: half-life at 20 μM (min)

{"COMPOUND": "CC(=O)NCCCC[C@H](NC(=O)[C@](C)(CC(C)C)NC(=O)[C@H](Cc1ccc2ccccc2c1)NC(=O)[C@H](Cc1ccc(OCCN)cc1)NC(=O)[C@H]1NC(=O)[C@H](CCC(N)=O)NC(=O)[C@H](Cc2c[nH]c3c(C)cccc23)NC(=O)[C@H]([C@@H](C)O)NC(=O)[C@H](CC(N)=O)NC(=O)[C@@H](NC(C)=O)C(C)(C)SSC1(C)C)C(=O)N[C@@H](CC(C)C)C(=O)NCCC(N)=O", "MEASUREMENT_QUALIFIER": ">", "NUMERIC_RESULT": 1440}
{"COMPOUND": "CC(=O)NCCCC[C@H](NC(=O)[C@](C)(CCCCN)NC(=O)[C@H](Cc1ccc2ccccc2c1)NC(=O)[C@H](Cc1ccc(OCCN)cc1)NC(=O)[C@H]1NC(=O)C(C)(C)NC(=O)[C@H](Cc2c[nH]c3c(C)cccc23)NC(=O)[C@H]([C@@H](C)O)NC(=O)[C@H](CC(N)=O)NC(=O)[C@@H](NC(C)=O)C(C)(C)SSC1(C)C)C(=O)N[C@@H](CC(N)=O)C(=O)NCCC(N)=O [compound 241] (Ac-[Pen]NT[Trp(7-Me)][Aib][Pen][AEF][2Nal][αMeK]K(Ac)N[βAla]-NH2; disulfide 1-6)", "MEASUREMENT_QUALIFIER": "=", "NUMERIC_RESULT": 900}
{"COMPOUND": "CC(=O)NCCCC[C@H](NC(=O)C1(NC(=O)[C@H](Cc2ccc3ccccc3c2)NC(=O)[C@H](Cc2ccc(OCCN)cc2)NC(=O)[C@H]2NC(=O)[C@H](CCC(N)=O)NC(=O)[C@H](Cc3c[nH]c4c(C)cccc34)NC(=O)[C@H]([C@@H](C)O)NC(=O)[C@H](CC(N)=O)NC(=O)[C@@H](NC(C)=O)C(C)(C)SSC2(C)C)CCCCC1)C(=O)N[C@@H](CC(N)=O)C(=O)NCCC(N)=O", "MEASUREMENT_QUALIFIER": "=", "NUMERIC_RESULT": 240}

* * *

Here the recorded half-life at 20 μM is given for each entry.
# ASSAY_INFO: in vitro
# CONDITION_DETAILS: cynomolgus monkey, 20% fecal homogenate (supernatant), anaerobic, pH 6.8
Bridge positions count the residues as written; N and C are the ends. Square brackets hold non-standard residues; d marks the D form. Peptide text beside a SMILES is read from it. Trp(7-Me) = Cc1cccc2c(C[C@H](N)C(=O)O)c[nH]c12; 2Nal = N[C@@H](Cc1ccc2ccccc2c1)C(=O)O; AEF = NCCOc1ccc(C[C@H](N)C(=O)O)cc1; Cit = NC(=O)NCCC[C@H](N)C(=O)O; Pen = CC(C)(S)[C@H](N)C(=O)O; αMeK = C[C@](N)(CCCCN)C(=O)O; Aib = CC(C)(N)C(=O)O; βAla = NCCC(=O)O

{"MOLECULE": "COc1cccc2[nH]cc(C[C@@H]3NC(=O)[C@H]([C@@H](C)O)NC(=O)[C@H](CC(N)=O)NC(=O)[C@@H](NC(C)=O)C(C)(C)SSC(C)(C)[C@@H](C(=O)N[C@@H](Cc4ccc(OCCN)cc4)C(=O)N[C@@H](Cc4ccc5ccccc5c4)C(=O)N[C@@](C)(CC(C)C)C(=O)N[C@@H](CCCCNC(C)=O)C(=O)N[C@@H](CC(N)=O)C(=O)N[C@@H](CC(N)=O)C(N)=O)NC(=O)[C@H](CCC(N)=O)NC3=O)c12 [compound 4]", "half-life at 20 μM": "2 h"}
{"MOLECULE": "CC(=O)NCCCC[C@H](NC(=O)[C@](C)(CCCCN)NC(=O)[C@H](Cc1ccc2ccccc2c1)NC(=O)[C@H](Cc1ccc(OCCN)cc1)NC(=O)[C@H]1NC(=O)[C@H](CCCNC(N)=O)NC(=O)[C@H](Cc2c[nH]c3c(C)cccc23)NC(=O)[C@H]([C@@H](C)O)NC(=O)[C@H](CC(N)=O)NC(=O)[C@@H](NC(C)=O)C(C)(C)SSC1(C)C)C(=O)NCCC(=O)NCCC(N)=O [compound 268] (Ac-[Pen]NT[Trp(7-Me)][Cit][Pen][AEF][2Nal][αMeK]K(Ac)[βAla][βAla]-NH2; disulfide 1-6)", "half-life at 20 μM": "> 24 h"}
{"MOLECULE": "CC(=O)NCCCC[C@H](NC(=O)[C@](C)(CC(C)C)NC(=O)[C@H](Cc1ccc2ccccc2c1)NC(=O)[C@H](Cc1ccc(OCCN)cc1)NC(=O)[C@H]1NC(=O)[C@H](CCC(N)=O)NC(=O)[C@H](Cc2c[nH]c3c(C)cccc23)NC(=O)[C@H]([C@@H](C)O)NC(=O)[C@H](CC(N)=O)NC(=O)[C@@H](NC(C)=O)C(C)(C)SSC1(C)C)C(=O)N[C@@H](CCCNC(N)=O)C(=O)NCCC(N)=O [compound 206]", "half-life at 20 μM": "> 24 h"}
{"MOLECULE": "CC(=O)NCCCC[C@H](NC(=O)[C@](C)(CC(C)C)NC(=O)[C@H](Cc1ccc2ccccc2c1)NC(=O)[C@H](Cc1ccc(OCCN)cc1)NC(=O)[C@H]1NC(=O)[C@](C)(CCCCN)NC(=O)[C@H](Cc2c[nH]c3c(C)cccc23)NC(=O)[C@H]([C@@H](C)O)NC(=O)[C@H](CC(N)=O)NC(=O)[C@@H](NC(C)=O)C(C)(C)SSC1(C)C)C(=O)N[C@@H](CC(N)=O)C(=O)NCCC(N)=O [compound 234]", "half-life at 20 μM": "> 24 h"}
{"MOLECULE": "CC(=O)NCCCC[C@H](NC(=O)[C@](C)(CCCCN)NC(=O)[C@H](Cc1ccc2ccccc2c1)NC(=O)[C@H](Cc1ccc(OCCN)cc1)NC(=O)[C@H]1NC(=O)[C@H](CCCNC(N)=O)NC(=O)[C@H](Cc2c[nH]c3c(C)cccc23)NC(=O)[C@H]([C@@H](C)O)NC(=O)[C@H](CC(N)=O)NC(=O)[C@@H](NC(C)=O)C(C)(C)SSC1(C)C)C(=O)N[C@@H](CC(N)=O)C(=O)NC(C)(C)C(N)=O [compound 264] (Ac-[Pen]NT[Trp(7-Me)][Cit][Pen][AEF][2Nal][αMeK]K(Ac)N[Aib]-NH2; disulfide 1-6)", "half-life at 20 μM": "> 24 h"}
